# Tested on: OVCAR-8 ovarian
# assay-remarks: NCI-60 one-dose screen, 48 h (100 = growth as untreated, 0 = no growth, -100 = all killed)
# conditions-used: 10 µM unless noted
The panel holds about 83,000 compounds, 20% with a hit somewhere; the sample as a whole holds those more often.
metric-name: growth (%)

>>> measured("COc1ccc(-c2nnc3ccc(N/N=C/c4ccc(O)cc4)nn23)cc1")
45.4
>>> measured("CCCCSc1nc(Nc2ccc(C(C)=O)cc2)c(C#N)c(-c2ccc(OC)cc2)n1")
27.5
>>> measured("c1ccc(-c2csc(Nc3cccc(Nc4nc(-c5ccccc5)cs4)c3)n2)cc1")
39.9
>>> measured("NS(=O)(=O)c1ccc(-n2cc(-c3cccc(NC(=O)c4cc(C(F)(F)F)cc(C(F)(F)F)c4)c3)nn2)cc1")
40.7
>>> measured("CN1CCN(c2ccc(C(=O)/C=C/c3ccc(Br)cc3)cc2)CC1")
2.63
>>> measured("CN(C)c1nc(NCCNS(=O)(=O)c2ccc(C3=Nc4c(N)nc(N)nc4NC(c4ccccc4)C3)cc2)nc(Nc2ccc(F)cc2)n1 (centres undefined)")
42.3
>>> measured("COc1cc2c(c(OC)c1OC)C(=O)CC(c1cccc(NC(=O)c3cc(N)ccc3Cl)c1)O2 (centres undefined)")
18.8
>>> measured("N#Cc1c(-c2cccc(Cl)c2Cl)cc(-c2ccc3ccccc3c2)[nH]c1=O")
41.5
>>> measured("CCCSc1nc(NCCc2c[nH]c3ccccc23)c(C#N)c(-c2ccc(F)cc2)n1")
65.2

----------
# Test system: ACHN renal
# assay-remarks: NCI-60 one-dose screen, 48 h (100 = growth as untreated, 0 = no growth, -100 = all killed)
# conditions-used: 10 µM unless noted
The panel holds about 83,000 compounds, 20% with a hit somewhere; the sample as a whole holds those more often.
metric-name: growth (%)

>>> measured("NC(=S)Nc1cccc(NC(N)=S)c1")
96.3
>>> measured("COc1ccc(-c2c(Nn3cnnn3)no[n+]2[O-])cc1")
34.1
>>> measured("CC1CN(c2oc(-c3ccc([N+](=O)[O-])cc3)nc2C#N)CC(C)O1 (stereo not given)")
108
>>> measured("C=CC(=O)Nc1ccc(C)c(Oc2ccc(Cl)cc2)c1")
65.4
>>> measured("COc1ccc(C(=O)/C=C/c2cccnc2)cc1S(N)(=O)=O")
50.7

----------
growth reference
# Test system: OVCAR-4 ovarian
# assay-remarks: NCI-60 one-dose screen, 48 h (100 = growth as untreated, 0 = no growth, -100 = all killed)
# conditions-used: 10 µM unless noted
The panel holds about 83,000 compounds, 20% with a hit somewhere; the sample as a whole holds those more often.
metric-name: growth (%)

>>> measured("CN(C)c1ccnc(NCCCSC(c2ccccc2)(c2ccccc2)c2ccccc2)c1")
33.4
>>> measured("C(=C\\c1cc(/C=C/c2ccccc2)c2ccccc2n1)/c1ccccc1")
98.6
>>> measured("CC1(c2cc3cc(Br)ccc3oc2=O)NC(=O)c2c(/C=C/C(=O)OC3CC4CCC3(C)C4(C)C)cccc2N1 (stereo not drawn)")
75.4
>>> measured("COc1ccc(C2CC(c3ccc(S(=O)(=O)NCCNc4nc(Nc5ccc(F)cc5)nc(N(C)C)n4)cc3)=Nc3c(N)nc(N)nc3N2)cc1 (stereo not drawn)")
83.7
>>> measured("COc1cc2c(c(OC)c1OC)C(=O)CC(c1cccc(NC(=O)c3cc(NC(=O)[C@@H](N)CO)ccc3C)c1)O2 (stereo partly drawn)")
112
>>> measured("COc1ccc2[nH]c(O)c(N=NC(=O)COc3ccc(NC(=O)Nc4ccccc4)cc3)c2c1")
19.7
>>> measured("Clc1cccc(N/N=C/c2c[nH]c3ccc(Br)cc23)n1")
61
>>> measured("O=C(NNc1nc2cc(F)ccc2n2c(CN3CC4CNCC4C3)ccc12)c1ccncn1 (stereo not drawn)")
28.6
>>> measured("COc1ccc(-c2nc3cc(C)ccc3n2CC(=O)N=Nc2c(O)[nH]c3ccc(Cl)cc23)cc1")
-25.4
>>> measured("C=C1CC[C@@H]2[C@]3(C)COC(c4cn[nH]c4-c4ccc(F)cc4)O[C@@H]3CC[C@@]2(C)[C@@H]1C/C=C1/C(=O)OCC1O (stereo partly drawn)")
32.9
>>> measured("CC(=O)c1cc(C(=O)c2ccccc2)n2c1ccc1ccccc12")
102
>>> measured("Cc1ccccc1[C@H]1C(C(=O)c2ccc(Cl)cc2)C2(N[C@@H]1c1ccccc1)C(=O)Nc1ccccc12 (stereo partly drawn)")
8.21
>>> measured("COc1ccc(C(=O)/C=C/c2cccc(Br)c2)cc1S(N)(=O)=O")
7.28
>>> measured("O=C(Cn1nc(-c2ccccc2)ccc1=O)N/N=C/c1ccc(N2CCOCC2)cc1")
93.9
>>> measured("CC(C)c1sc(NC(=O)c2cc(NC(=O)c3cc(NC(=O)c4cscn4)cn3C)cn2C)nc1C(=O)NCCCN(C)C")
18.7
>>> measured("CCN(CC)C(=O)N/C(N)=N/c1nc2ccccc2s1")
22.2
>>> measured("NS(=O)(=O)c1ccc(CCNC(=O)CSc2ccc(-c3ccc(Br)cc3)nn2)cc1")
49.3
>>> measured("CCCCCCCCc1ccc(C(=O)Nc2ccc(C)cc2C(=O)O)cc1C")
102
